target: PCSK9 (Homo sapiens, UniProt Q8NBP7); construct: purchased; test: PCSK9 Alexa FRET Standard TR-FRET assay; format: binding; conditions: displacement of AlexaFluor647 tagged cyclic peptide Reagent A (20 nM) from biotinylated PCSK9 (0.5 nM); read-out: A (standard TR Fret); Ki calculated from the IC50 and the KD of AF cyclic peptide
Sequence (Q8NBP7 153-692): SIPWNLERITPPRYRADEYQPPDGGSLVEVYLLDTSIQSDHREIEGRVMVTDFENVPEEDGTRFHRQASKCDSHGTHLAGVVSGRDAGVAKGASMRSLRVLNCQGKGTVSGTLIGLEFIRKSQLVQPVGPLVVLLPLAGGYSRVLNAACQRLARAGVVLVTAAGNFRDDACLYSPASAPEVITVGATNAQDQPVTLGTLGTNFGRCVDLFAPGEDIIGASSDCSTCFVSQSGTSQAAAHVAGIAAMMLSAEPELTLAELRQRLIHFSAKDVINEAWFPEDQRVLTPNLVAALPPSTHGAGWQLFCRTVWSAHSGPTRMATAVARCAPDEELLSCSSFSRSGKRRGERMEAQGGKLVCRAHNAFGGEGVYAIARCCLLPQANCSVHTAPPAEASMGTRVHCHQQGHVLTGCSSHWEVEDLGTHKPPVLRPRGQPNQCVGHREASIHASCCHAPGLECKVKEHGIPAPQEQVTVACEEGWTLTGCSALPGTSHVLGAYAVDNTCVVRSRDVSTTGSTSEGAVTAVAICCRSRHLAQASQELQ
Starred links: 1 amine or outer side, 2 acyl side, 3 side chain; linkers in the order of their positions; H or OH if unused. Positions of bridges follow the written chain, without caps; N, C: chain ends. Non-standard residues stand in square brackets, D forms with d. Residues, ends and D or L forms follow the SMILES beside them. *: point of attachment. Phe(3-CH2NH2) = O=C([C@H](Cc1cccc(CN[*:3])c1)N[*:1])[*:2]; Me3N+(CH2)2O(CH2)2O(CH2)2CO = C[N+](C)(C)CCOCCOCCC(=O)*; Trp(5-F) = N[C@@H](Cc1c[nH]c2ccc(F)cc12)C(=O)O; X1 = O=C(CCC(=O)[*:1])NCc1ccc(CCN[*:2])cc1; NMeE = CN[C@@H](CCC(=O)O)C(=O)O; αMeP = C[C@@]1(C(=O)O)CCCN1; Dap = NC[C@H](N)C(=O)O
Value type: pKi
Give only the number. pKi is defined as minus log10 of concentration in molar units.

### Prompt Hello, please tell me recorded pKi for this one: COc1ccc(C[C@@H]2NC(=O)[C@H]([C@@H](C)O)NC(=O)[C@@H]3CCC(=O)NCc4cccc(c4)C[C@H](NC(=O)[C@@H](C)NC(=O)[C@H](CN)NC(=O)CCC(=O)NCc4ccc(cc4)CCNC(=O)[C@]4(C)CCCN4C2=O)C(=O)N[C@@H](Cc2c[nH]c4ccc(F)cc24)C(=O)N3C)cc1 [Ex-C04] ([Dap][dA][Phe(3-CH2NH2)][Trp(5-F)][NMeE]TY(Me)[αMeP]; lactam 3-5; linker N-C via X1)
### Response 8.37

### Prompt Using the record for COc1ccc(C[C@@H]2NC(=O)[C@H]([C@@H](C)O)NC(=O)[C@@H]3CCC(=O)NCc4cccc(c4)C[C@H](NC(=O)[C@@H](C)NC(=O)[C@H](CNC(=O)CCOCCOCC[N+](C)(C)C)NC(=O)CCC(=O)NCc4ccc(cc4)CCNC(=O)[C@]4(C)CCCN4C2=O)C(=O)N[C@@H](Cc2c[nH]c4ccc(F)cc24)C(=O)N3C)cc1 [Ex-C03] ([Dap](Me3N+(CH2)2O(CH2)2O(CH2)2CO)[dA][Phe(3-CH2NH2)][Trp(5-F)][NMeE]TY(Me)[αMeP]; lactam 3-5; linker N-C via X1) , state its measured pKi.
### Response 7.74
